Tested on: Rat basophilic leukemia (RBL) cells
Assay: LTB4 secretion assay in RBL (rat basophilic leukemia cells)
Assay type: cell-based
Settings: Rattus norvegicus
pEC50: −log10 of the molar value.
Observable: pEC50

query: pEC50 for Nc1ccc2nc(NCc3ccc(Cl)cn3)[nH]c2c1 ?
result: < 4.70

----------
In this section, each of the compounds is paired with its reported melting point.

Known results for compounds:
Structure Smiles String: Nc1ccc2nc(NCc3ccc(Cl)cn3)[nH]c2c1
Measurement: 101.8 to 104 °C
--
Structure Smiles String: Nc1ccc2[nH]c(NCc3ccc(Oc4cccc(Cl)c4)cc3)nc2c1
Measurement: > 160.8 °C

--- query ---
query: Endpoint output: melting point of CN(C)c1ccc2[nH]c(NCc3ccc(Oc4ccccc4)cc3)nc2c1 . Value?
result: 116.8 to 118.7 °C

----------
Test system: Rat whole blood (RWB)
Experiment: LTB4 secretion assay in RWB (rat whole blood)
Type: cell-based
Conditions: Rattus norvegicus
Observable: EC50

Reference set, count: 7
Compound: CCC(Nc1nc2ccc(Nc3cc(C(F)F)[nH]n3)cc2n1C)c1ccc(Oc2ncc(Cl)cn2)cc1 (centres unmarked)
System Name: Rat whole blood (RWB)
EC50: < 10 µM

Compound: COc1c(NC(C)c2ccc(Oc3ccc(OC(F)(F)F)cc3)cc2)ccc2[nH]c(N(C)C)nc12 (centres unmarked)
System Name: Rat whole blood (RWB)
EC50: > 20 µM

Compound: Cc1cc(Nc2ccc3nc(NCc4ccc(Oc5ccc(OC(F)(F)F)cn5)cc4)n(C)c3c2)n[nH]1
System Name: Rat whole blood (RWB)
EC50: < 10 µM

Compound: CCC(Nc1nc2ccc(Nc3cc(C)[nH]n3)cc2n1C)c1ccc(Oc2ncc(C(F)(F)F)cn2)cc1F (centres unmarked)
System Name: Rat whole blood (RWB)
EC50: < 10 µM

Compound: Nc1ccc2nc(N)n(CCOc3ccc(OC(F)(F)F)cc3)c2c1
System Name: Rat whole blood (RWB)
EC50: < 10 µM

Compound: Cc1cc(Nc2ccc3nc(NCc4ccc(N(C)c5ncc(Cl)cn5)cc4)n(C)c3c2)n[nH]1
System Name: Rat whole blood (RWB)
EC50: < 10 µM

Compound: Clc1ccc(Oc2ccc(CNc3nc4cc(Nc5cccnc5)ccc4[nH]3)cc2)cc1
System Name: Rat whole blood (RWB)
EC50: > 20 µM

query: Need EC50 of Cn1c(NCCOc2ccc(OC(F)(F)F)cc2)nc2cc(N)ccc21 , thanks.
result: < 10 µM

----------
pEC50 values by entry
System: Rat whole blood (RWB)
Experiment: LTB4 secretion assay in RWB (rat whole blood)
Format: cell-based
Conditions: Rattus norvegicus
pEC50: −log10 of the molar value.

Compound: Cc1cnc(Nc2ccc3nc(NCc4ccc(Oc5ncc(Cl)cn5)cc4)n(C)c3c2)s1
System Name: Rat whole blood (RWB)
pEC50: > 5.00

Compound: COc1nc(Oc2ccc(CNc3nc4ccc(NC5COC5)cc4n3C)cc2)ncc1Cl
System Name: Rat whole blood (RWB)
pEC50: 4.70 to 5.00

query: I'd like to know its pEC50. The compound in question is Cn1c(NCc2ccc(Oc3ncc(C#N)cn3)cc2)nc2ccc(NC3COC3)cc21
result: > 5.00

query: Query: pEC50; subject: Nc1ccc2[nH]c(NCc3cccc(Oc4ccccc4)c3)nc2c1
result: > 5.00

query: Query: pEC50; subject: Nc1ccc2[nH]c(NCc3ccc(OC(F)(F)F)cc3)nc2c1
result: > 5.00

query: Requested read-out: pEC50. Entry: Cc1[nH]nc(Nc2ccc3nc(NCc4ccc(Oc5ncc(Cl)cn5)cc4)n(C)c3c2)c1Cl
result: > 5.00

query: Looking for the measured pEC50 of Cn1c(NCc2ccc(Oc3ncc(C(F)(F)F)cn3)cc2)nc2ccc(N)cc21 , can you help?
result: > 5.00
